# GI50 measurements, system: lung cancer cell line A549
propertyName: GI50

INSERT INTO measurements (molecule, recordedvalue) VALUES
  ('CC(=O)OC1C(=O)C2(C)C(O)CC3OCC3(OC(C)=O)C2C(OC(=O)c2ccccc2)C2(O)CC(OC(=O)C(OC(=O)CCCCCCB(O)O)C(NC(=O)c3ccccc3)c3ccccc3)C(C)=C1C2(C)C (centres unmarked) [Compound 17e, 2’-O-[7-boronoheptanoyl]taxol]', '> 100 nM'),
  ('CC(=O)OC1C(=O)C2(C)C(O)CC3OCC3(OC(C)=O)C2C(OC(=O)c2ccccc2)C2(O)CC(OC(=O)C(OC(=O)c3ccc(B(O)O)cc3)C(NC(=O)c3ccccc3)c3ccccc3)C(C)=C1C2(C)C (centres unmarked) [Compound 6a, 2’-O-[4-boronobenzoyl]taxol]', '> 100 nM'),
  ('CC(=O)OC1C(=O)C2(C)C(O)CC3OCC3(OC(C)=O)C2C(OC(=O)c2ccccc2)C2(O)CC(OC(=O)C(OC(=O)CSSCC(=O)OCc3ccc(B(O)O)cc3)C(NC(=O)c3ccccc3)c3ccccc3)C(C)=C1C2(C)C (centres unmarked)', '13.9 nM'),
  ('CC(=O)OC1C(=O)C2(C)C(O)CC3OCC3(OC(C)=O)C2C(OC(=O)c2ccccc2)C2(O)CC(OC(=O)C(OC(=O)CCC(=O)OCc3ccc(B(O)O)cc3)C(NC(=O)c3ccccc3)c3ccccc3)C(C)=C1C2(C)C (centres unmarked)', '68.5 nM'),
  ('CC(=O)OC1C(=O)C2(C)C(O)CC3OCC3(OC(C)=O)C2C(OC(=O)c2ccccc2)C2(O)CC(OC(=O)C(OC(=O)CCCCCB(O)O)C(NC(=O)c3ccccc3)c3ccccc3)C(C)=C1C2(C)C (centres unmarked) [Compound 17d, 2’-O-[6-boronohexanoyl]taxol]', '> 100 nM'),
  ('CC(=O)OC1C(=O)C2(C)C(O)CC3OCC3(OC(C)=O)C2C(OC(=O)c2ccccc2)C2(O)CC(OC(=O)C(OC(=O)OCc3ccc(B(O)O)cc3)C(NC(=O)c3ccccc3)c3ccccc3)C(C)=C1C2(C)C (centres unmarked) [Compound 13a, 2’-O-[4-boronobenzyl carbonate]taxol]', '22.5 nM'),
  ('CC(=O)OC1C(=O)C2(C)C(O)CC3OCC3(OC(C)=O)C2C(OC(=O)c2ccccc2)C2(O)CC(OC(=O)C(OC(=O)OCCCCCB(O)O)C(NC(=O)c3ccccc3)c3ccccc3)C(C)=C1C2(C)C (centres unmarked) [Compound 10a, 2’-O-[5-boronopentyl carbonate]taxol]', '> 100 nM'),
  ('CC(=O)OC1C(=O)C2(C)C(O)CC3OCC3(OC(C)=O)C2C(OC(=O)c2ccccc2)C2(O)CC(OC(=O)C(OC(=O)CCB(O)O)C(NC(=O)c3ccccc3)c3ccccc3)C(C)=C1C2(C)C (centres unmarked) [Compound 17a, 2’-O-[3-boronopropanoyl]taxol]', '21.8 nM');

Cited source for all entries: paper PMC9694711
